Assay: Validation of Assay for Modulators of Lamin A Splicing (AID 1459);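 also: cells exposed to compound for two days before reading; ratio rise marks activators and ratio drop marks inhibitors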
Settings: Lamin A splicing dual RFP/GFP fluorescence reporter; series mostly up to 9.22 µM
Results filed as inconclusive are left out. Active and inactive are the calls of the source. Calls follow the shape of the dose curve; as a rule, active = well fitted curve in the direction sought with a large enough effect in the signal ratio; inconclusive = small, poorly fitted or top-dose-only effect, or effect the other way, or a change in a side signal; inactive = no such curve, though single readings can be large or run the other way; the % refers to the signal ratio.
Recorded endpoint: outcome

Completed entries (count: 6):
- Compound: "CNCCC(Oc1ccc(C(F)(F)F)cc1)c1ccccc1 (stereo not given)"
  Recorded endpoint: "outcome"
  Experimental result: "inactive"
- Compound: "CCCCCCCCCCCCCCCC(=O)NCCO"
  Recorded endpoint: "outcome"
  Experimental result: "inactive"
- Compound: "CC(C)(C)c1onc(OCP(=O)(O)O)c1CC(N)C(=O)O (stereo not given)"
  Recorded endpoint: "outcome"
  Experimental result: "inactive"
- Compound: "COC(=O)C1=C(C)NC(C)=C(C(=O)OC)C1c1ccccc1[N+](=O)[O-]"
  Recorded endpoint: "outcome"
  Experimental result: "inactive"
- Compound: "O=C1N=C(O)CN1/N=C/c1ccc(-c2ccc([N+](=O)[O-])cc2)o1"
  Recorded endpoint: "outcome"
  Experimental result: "inactive"
- Compound: "N=c1c[n+](N2CCOCC2)[n-]o1"
  Recorded endpoint: "outcome"
  Experimental result: "inactive"

Items follow; give outcome for each.
1. CC1=C(CC(=O)O)c2cc(F)ccc2/C1=C\c1ccc(S(C)(=O)=O)cc1
2. COc1ccc(Cl)cc1C(=O)NCCc1ccc(S(=O)(=O)NC(=O)NC2CCCCC2)cc1
3. CC(CN(C)C)CN1c2ccccc2CCc2ccccc21 (stereo not given)
4. OCc1cc(C(O)CNCCCCCCOCCCCc2ccccc2)ccc1O (stereo not given)

A:
["inactive", "inactive", "inactive", "inactive"]
